- Tested on: Rattus norvegicus
- ASSAY_INFO: Compound was tested in vivo for Iron mobilization efficacy against hepatocytes in normal fasted rats (loaded with [59Fe]-Ferritin).
- Assay type: functional, Hepatocyte
- Set-up: concentration or dose not given beside the values
MEASUREMENT_TYPE: Efficacy (%)
The reply should contain only the number, in %.

Would you mind telling me what Efficacy value was observed for O=C(OCCCn1ccc(=O)c(O)c1CO)c1ccccc1 ? 52.1

Entry under review: Cc1cc(=O)c(O)c(C(C)O)n1C (stereo not given) . Reported Efficacy? 44.5

Look at this compound and give its reported Efficacy. Cc1c(O)c(=O)ccn1CCCO 26

So what does the record say about Efficacy for O=c1ccn(CCCO)c(CO)c1O ? 7.8

Look up Efficacy for this compound: CC(O)c1c(O)c(=O)ccn1CCCO (stereo not given) 10.6

// query Efficacy value for entry CCn1c(C)cc(=O)c(O)c1CO 9

Which measured Efficacy value corresponds to CCC(O)c1c(O)c(=O)cc(C)n1C (stereo not given) ? 56.5

What value of Efficacy has been reported for the following compound? CCn1ccc(=O)c(O)c1C(C)O (stereo not given) 50.6

Please report the recorded Efficacy for CCn1ccc(=O)c(O)c1CO . 29.4

What measured Efficacy goes with Cc1cc(=O)c(O)c(CO)n1C ? 0.6

Tell me the measured Efficacy of CCc1c(O)c(=O)ccn1CC , please. 55.8

Item under review: CCc1c(O)c(=O)ccn1CCOC(=O)C(C)(C)C . Reported Efficacy? 19.1

Form field: reported Efficacy of Cn1ccc(=O)c(O)c1CO 4.6

Recorded Efficacy for CCc1c(O)c(=O)ccn1CCO , please? 12.9

Recorded Efficacy of Cc1c(O)c(=O)ccn1CCCOC(=O)c1ccccc1 , please. 32.5

* * *

- ASSAY_INFO: Partition coefficient (logD7.4)
- Type: physicochemical
- RECORDED_CONDITIONS: octanol/water, pH 7.4
MEASUREMENT_TYPE: logD
Output: the number by itself.

Find the recorded logD belonging to CCn1ccc(=O)c(O)c1CO and report it. -0.854

Using the record for Cn1ccc(=O)c(O)c1CO , report its logD. -1.32

# get_value(readout='logD', item= CCn1c(C)cc(=O)c(O)c1CO ) -0.652

Any idea what its logD is? The compound is O=C(OCCCn1ccc(=O)c(O)c1CO)c1ccccc1 0.749

Tell me the measured logD of CCC(O)c1c(O)c(=O)cc(C)n1C (configuration not stated) , please. -0.134

So what's the measured logD for this one? Cc1c(O)c(=O)ccn1CCCOC(=O)c1ccccc1 1.25

For the compound shown here, Cc1cc(=O)c(O)c(CO)n1C , give the reported logD. -1.01

Which measured logD value corresponds to CC(O)c1c(O)c(=O)ccn1CCCO (configuration not stated) ? -1.12

I'd like to know its logD. The compound in question is CCn1ccc(=O)c(O)c1C(C)O (configuration not stated) -0.575

Tell me the measured logD of O=c1ccn(CCCO)c(CO)c1O , please. -1.25

What logD value was documented for this compound, Cc1cc(=O)c(O)c(C(C)O)n1C (configuration not stated) ? -0.606

Give its logD value. Item: CCc1c(O)c(=O)ccn1CCOC(=O)C(C)(C)C 1.16

* * *

Assign logP to each entry below.
- ASSAY_INFO: Partition coefficient (logP)
- Type: physicochemical
- RECORDED_CONDITIONS: octanol/water
Give the value as a plain number.

Query: logP; subject: O=C(OCCCn1ccc(=O)c(O)c1CO)c1ccccc1 0.749

Recorded logP of CCn1ccc(=O)c(O)c1C(C)O (configuration not stated) , please. -0.575

Please give the measured logP for this molecule: Cc1c(O)c(=O)ccn1CCCOC(=O)c1ccccc1 1.25

Which value of logP has been reported for O=c1ccn(CCCO)c(CO)c1O in the records? -1.25

Requested field: logP. Item: CC(O)c1c(O)c(=O)ccn1CCCO (configuration not stated) -1.12

Requested field: logP. Item: CCn1c(C)cc(=O)c(O)c1CO -0.652

Which logP value belongs to CCc1c(O)c(=O)ccn1CCOC(=O)C(C)(C)C ? 1.16

Quick one: logP for Cn1ccc(=O)c(O)c1CO ? -1.32

So what's the measured logP for this one? Cc1cc(=O)c(O)c(C(C)O)n1C (configuration not stated) -0.606

For the molecule shown here, CCn1ccc(=O)c(O)c1CO , give the reported logP. -0.854

Report logP for Cc1cc(=O)c(O)c(CO)n1C please. -1.01

Entry CCC(O)c1c(O)c(=O)cc(C)n1C (configuration not stated) : reported logP = ? -0.134

Data credit: ChEMBL document CHEMBL1132479
